- EXPERIMENT DESCRIPTION: physchem
- CONDITION INFO: MTBE, 26 °C, organic solvent or mixture, thermodynamic from solid
Structures can show the parent of a compound that is named as a salt.
ENDPOINT: solubility

Recorded solubility for CCOc1cccc(-c2nc3ncc(NS(C)(=O)=O)nc3n2-c2c(OC)cccc2OC)n1 [Compound I choline salt Form A] , please? < 2100 µg/mL

* * *

- EXPERIMENT DESCRIPTION: physchem
- CONDITION INFO: 1,4-Dioxane, 26 °C, organic solvent or mixture, thermodynamic from solid
Structures can show the parent of a compound that is named as a salt.
ENDPOINT: solubility

Recorded solubility for CCOc1cccc(-c2nc3ncc(NS(C)(=O)=O)nc3n2-c2c(OC)cccc2OC)n1 [Compound I choline salt Form A] , please? < 2.1 mg/mL

* * *

- EXPERIMENT DESCRIPTION: Dog pharmacokinetic study after oral administration, plasma by LC-MS/MS
- Format: in vivo, male Beagle dogs
- CONDITION INFO: male, Beagle, plasma, po, 30 mg/kg, capsule, mean, t = 24 h
Structures can show the parent of a compound that is named as a salt.
ENDPOINT: AUC(0-t) (µg·h/mL)
Give bare numbers, in µg·h/mL.

Recorded AUC(0-t) for CCOc1cccc(-c2nc3ncc(NS(C)(=O)=O)nc3n2-c2c(OC)cccc2OC)n1 [Compound I choline salt Form A] , please? 145

* * *

- EXPERIMENT DESCRIPTION: physchem
- CONDITION INFO: EtOAc, 26 °C, organic solvent or mixture, thermodynamic from solid
Counter-ions that a name gives are not always drawn.
ENDPOINT: solubility

Recorded solubility for CCOc1cccc(-c2nc3ncc(NS(C)(=O)=O)nc3n2-c2c(OC)cccc2OC)n1 [Compound I choline salt Form A] , please? < 1700 µg/mL

* * *

- EXPERIMENT DESCRIPTION: physchem
- CONDITION INFO: IPA/ACN (1:1), 26 °C, organic solvent or mixture, thermodynamic from solid
Counter-ions that a name gives are not always drawn.
ENDPOINT: solubility

Recorded solubility for CCOc1cccc(-c2nc3ncc(NS(C)(=O)=O)nc3n2-c2c(OC)cccc2OC)n1 [Compound I choline salt Form A] , please? 7 to 21 mg/mL
